Just for reference, patent US12391677B2 is where these values come from.

studyTarget: ligand binding domain of thyroid hormone receptor beta (Homo sapiens (Human))
runDescription: Thyroid hormone receptor TR-FRET binding assay (TRβ LBD)
conditionContext: TRβ LBD 2 nM
pEC50: −log10 of the molar value.
recordedMetric: pEC50

In the examples that follow, each entry is paired with its recorded pEC50.
{"molecule": "CC(C)c1cc(Oc2c(Cl)cc(-n3nc(C4CC4)c(=O)[nH]c3=O)cc2Cl)n[nH]c1=O [Compound 36]", "studyTarget": "ligand binding domain of thyroid hormone receptor beta (Homo sapiens (Human))", "pEC50": 4.93}
{"molecule": "N#Cc1nn(-c2cc(Cl)c(Oc3cc(Cc4ccc(O)cc4)c(=O)[nH]n3)c(Cl)c2)c(=O)[nH]c1=O [Compound 33]", "studyTarget": "ligand binding domain of thyroid hormone receptor beta (Homo sapiens (Human))", "pEC50": 7.10}
{"molecule": "N#Cc1nn(-c2cc(Cl)c(Sc3cc(Cc4ccccc4)c(=O)[nH]n3)c(Cl)c2)c(=O)[nH]c1=O [Compound 80]", "studyTarget": "ligand binding domain of thyroid hormone receptor beta (Homo sapiens (Human))", "pEC50": 5.63}
{"molecule": "CC(c1ccccc1)c1cc(Oc2c(Cl)cc(-n3nc(C#N)c(=O)[nH]c3=O)cc2C(F)(F)F)n[nH]c1=O (single isomer, unassigned) [Compound 96]", "studyTarget": "ligand binding domain of thyroid hormone receptor beta (Homo sapiens (Human))", "pEC50": 6.08}
{"molecule": "Cc1nn(-c2cc(Br)c(Oc3cc(C4CCCC4)c(=O)[nH]n3)c(Br)c2)c(=O)[nH]c1=O [Compound 22]", "studyTarget": "ligand binding domain of thyroid hormone receptor beta (Homo sapiens (Human))", "pEC50": 7.05}

1: CC(C)c1c[nH]c2ncc(Oc3c(Cl)cc(-n4nc(C#N)c(=O)[nH]c4=O)cc3Cl)cc12 [Compound 84]
2: Cc1nn(-c2cc(Cl)c(Oc3cc(CC4CCC(O)CC4)c(=O)[nH]n3)c(Cl)c2)c(=O)[nH]c1=O (stereo not drawn) [Compound 55]
3: Cc1nn(-c2cc(Cl)c(Oc3cc(Cc4ccc(Cl)cc4)c(=O)[nH]n3)c(Cl)c2)c(=O)[nH]c1=O [Compound 49]
4: N#Cc1nn(-c2cc(Cl)c(Oc3cc(CC4CCC(O)CC4)c(=O)[nH]n3)c(Cl)c2)c(=O)[nH]c1=O (stereo not drawn) [Compound 50]
5: Cc1nn(-c2cc(Cl)c(Oc3cc([C@H](C)c4ccccc4)c(=O)[nH]n3)c(Cl)c2)c(=O)[nH]c1=O (single isomer, unassigned) [Compound 72]
Parameters: sort_field (pEC50), sort_dir (desc). Answer by writing out the labels in the requested order.
3, 1, 2, 5, 4

----------
studyTarget: TRβ-GAL4 binding domain chimeric receptors (Homo sapiens (Human))
Sequence (P10828 217-461, change not shown): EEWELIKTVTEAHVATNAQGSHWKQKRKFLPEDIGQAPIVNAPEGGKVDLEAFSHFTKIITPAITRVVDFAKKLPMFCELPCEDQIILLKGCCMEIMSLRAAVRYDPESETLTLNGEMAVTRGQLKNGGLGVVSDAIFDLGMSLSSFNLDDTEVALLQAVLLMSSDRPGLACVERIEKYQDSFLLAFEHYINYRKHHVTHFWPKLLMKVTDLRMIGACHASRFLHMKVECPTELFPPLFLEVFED
runDescription: Thyroid hormone receptor cell assay (GAL4 luciferase reporter in HEK293-LUC cells)
recordedMetric: EC50 (µM)

Recorded results for 3 compounds are shown here.
{"compoundSmiles": "CCC(CC)c1cc(Oc2c(Cl)cc(-n3nc(C)c(=O)[nH]c3=O)cc2Cl)n[nH]c1=O", "quantityUnit": "µM", "endpointResult": 0.61}
{"compoundSmiles": "N#Cc1nn(-c2cc(Cl)c(Oc3cc(C4CC4)c(=O)[nH]n3)c(Br)c2)c(=O)[nH]c1=O", "quantityUnit": "µM", "endpointResult": 7.38}
{"compoundSmiles": "CC(C)c1nn(-c2c(Cl)cc(-n3nc(C#N)c(=O)[nH]c3=O)cc2Cl)c2ccc(O)cc12", "quantityUnit": "µM", "endpointResult": 4.35}

A: N#Cc1nn(-c2cc(Cl)c(Oc3cc(CC4CCCCC4)c(=O)[nH]n3)c(Cl)c2)c(=O)[nH]c1=O
B: N#Cc1nn(-c2cc(Cl)c(Oc3cc(C4CC4)c(=O)[nH]n3)c(Cl)c2)c(=O)[nH]c1=O
When A and B are compared, which has the higher number for EC50? Selection: enter the item's label.
A

P: N#Cc1nn(-c2cc(Cl)c(Oc3cc(Cc4ccc5[nH]ncc5c4)c(=O)[nH]n3)c(Cl)c2)c(=O)[nH]c1=O
Q: Cc1nn(-c2cc(Br)c(Oc3cc(C(C)C)c(=O)[nH]n3)c(Br)c2)c(=O)[nH]c1=O
Record comparison, field EC50: mark the lower of P and Q . Field: selected label. Fill in the label of the entry you choose.
Q
